Provide the recorded pKd for the entries that follow.
molecular target: T1, extracellular domain of human ILT3 (huILT3-ECD) (human, UniProt Q8NHJ6 22-259); assay: SPR (Biacore), antibody captured via anti-Fc on CM5 chip, soluble ILT3-ECD injected
T1 construct: also called human ILT3-ECD
One number for each entry, as −log10 of the molar value.

Report pKd for each item below.
1. 45G10 chimera (antibody, V domains shown, also called parental chimeric 45G10) VH: EVQLVESGGGLVKPGGSLKLSCAASGFTFSDYGMHWVRQAPEKGLEWVAYIFSGSSTIYYADTVKGRFTISRDNAKNTLFLQMTSLRSEDTAMYYCARADGRGAMDYWGQGTSVTVSS VL: DVQMTQTTSSLSASLGDRVTISCRASQDISKFLNWYQQKPDGTVTLLIYYTSRLHSGVPSRFSGSGSGTDYSLTISNLDQEDIATYFCQQGNTLPWTFGGGTKLEIK
2. Hz48A6 C2/C2 (antibody, V domains shown) VH: EVQLVESGGGLMQPGGSLRLSCAASGFTFSSYGMSWVRQAPGKGLEWVATISSGGTYTFYPDSVKGRFTISRDNSKNTLYLQMNSLRAEDTAVYYCARRGWLLHYYAMDYWGQGTLVTVSS VL: DIQLTQSPSFLSASVGDRVTITCRPSESVDSFGNSFMHWFQQKPGKAPKLLIYLSSKLESGVPSRFSGSGSGTEFTLTISSLQPEDFATYYCQQHNEDPFTFGQGTKVEIK
3. Hz48A6 B1/C2 (antibody, V domains shown) VH: EVQLVESGGGLMQPGGSLRLSCAASGFTFSSYGMSWVRQAPGKGLEWVATISSGGTYTFYPDSVKGRFTISRDNAKNSLYLQMNSLRAEDTAVYYCARRGWLLHYYAMDYWGQGTSVTVSS VL: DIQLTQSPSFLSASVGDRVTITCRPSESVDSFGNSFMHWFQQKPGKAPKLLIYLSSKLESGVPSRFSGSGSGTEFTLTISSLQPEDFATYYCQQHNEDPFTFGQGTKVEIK

Result:
[9.85, 9.62, 9.60]

Report pKd for each item below.
1. Hz48A6 C1/C2 (antibody, V domains shown) VH: EVQLVESGGGLVQPGGSLRLSCAASGFTFSSYGMSWVRQAPGKGLEWVATISSGGTYTFYPDSVKGRFTISRDNSKNTLYLQMNSLRAEDTAVYYCARRGWLLHYYAMDYWGQGTLVTVSS VL: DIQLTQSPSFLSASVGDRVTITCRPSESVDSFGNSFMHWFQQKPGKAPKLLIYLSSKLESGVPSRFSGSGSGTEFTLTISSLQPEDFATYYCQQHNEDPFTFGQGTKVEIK
2. Hz48A6 C0/C2 (antibody, V domains shown) VH: EVQLVESGGGLVQPGGSLRLSCAASGFTFSSYGMSWVRQAPGKGLEWVGTISSGGTYTFYPDSVKGRFTISRDNSKNTLYLQMNSLRAEDTAVYYCARRGWLLHYYAMDYWGQGTLVTVSS VL: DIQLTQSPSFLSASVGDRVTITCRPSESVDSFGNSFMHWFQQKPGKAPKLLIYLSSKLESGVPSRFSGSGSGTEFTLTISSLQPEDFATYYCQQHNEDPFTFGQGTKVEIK

Result:
1. 9.59
2. 9.80
